target: Rabies virus glycoprotein G, strain CVS-11 (Challenge Virus Standard-11, ATCC VR 959) (Rabies virus, strain CVS-11); test: cell-based or functional assay
Please mark 1 if the recorded CVS neutralizing antibody titre (RFFIT): nM IC50 is equal to or greater than 4 nM, and 0 if it falls below.

| binder | class_assignment |
| --- | --- |
| 214-E8 5GS 212-C12 (VHH) EVQLVESGGGSVQAGGSLRLSCAASGGTFNPYVMAWFRQAPGNEREFVARIRWSGGDAYYDDSVKGRFAITRDAAKNTVHLQMNSLKPEDTAVYYCAAATYGYGSYTYGGSYDLWGQGTQVTVSSGGGGSEVQLVESGGGLVQPGGSLRLSCAASGFTFGSSDMSWVRQAPGKGPEWVSGINSGGGRTLYADSVKGRFTISRDNAKNTLYLQMNSLKSEDTAVYYCATDLYGSSWYTDYWSQGTQVTVSS | 1 |
| 213-E6 25GS 214-E8 (VHH) EVQLVESGGGLVQAGASLRLSCAASGSTLSRYGVGWFRQAPGKERELVASVDWSGSRTYYADSVKGRFTISRDNAKNTGYLQMNSLKPDDTAVYYCAADSSVVPGIEKYDDWGLGTQVTVSSGGGGSGGGGSGGGGSGGGGSGGGGSEVQLVESGGGSVQAGGSLRLSCAASGGTFNPYVMAWFRQAPGNEREFVARIRWSGGDAYYDDSVKGRFAITRDAAKNTVHLQMNSLKPEDTAVYYCAAATYGYGSYTYGGSYDLWGQGTQVTVSS | 0 |
| 212-C12 15GS 212-C12 (VHH) EVQLVESGGGLVQPGGSLRLSCAASGFTFGSSDMSWVRQAPGKGPEWVSGINSGGGRTLYADSVKGRFTISRDNAKNTLYLQMNSLKSEDTAVYYCATDLYGSSWYTDYWSQGTQVTVSSGGGGSGGGGSGGGGSEVQLVESGGGLVQPGGSLRLSCAASGFTFGSSDMSWVRQAPGKGPEWVSGINSGGGRTLYADSVKGRFTISRDNAKNTLYLQMNSLKSEDTAVYYCATDLYGSSWYTDYWSQGTQVTVSS | 0 |
| 213-E6 25GS 213-E6 (VHH) EVQLVESGGGLVQAGASLRLSCAASGSTLSRYGVGWFRQAPGKERELVASVDWSGSRTYYADSVKGRFTISRDNAKNTGYLQMNSLKPDDTAVYYCAADSSVVPGIEKYDDWGLGTQVTVSSGGGGSGGGGSGGGGSGGGGSGGGGSEVQLVESGGGLVQAGASLRLSCAASGSTLSRYGVGWFRQAPGKERELVASVDWSGSRTYYADSVKGRFTISRDNAKNTGYLQMNSLKPDDTAVYYCAADSSVVPGIEKYDDWGLGTQVTVSS | 0 |
| 213-E6 5GS 213-E6 (VHH) EVQLVESGGGLVQAGASLRLSCAASGSTLSRYGVGWFRQAPGKERELVASVDWSGSRTYYADSVKGRFTISRDNAKNTGYLQMNSLKPDDTAVYYCAADSSVVPGIEKYDDWGLGTQVTVSSGGGGSEVQLVESGGGLVQAGASLRLSCAASGSTLSRYGVGWFRQAPGKERELVASVDWSGSRTYYADSVKGRFTISRDNAKNTGYLQMNSLKPDDTAVYYCAADSSVVPGIEKYDDWGLGTQVTVSS | 0 |
